Measured MIC90 accompanies every entry in the list below.
system: Stenotrophomonas maltophilia; assay: microbe, parasite or virus in culture; type: functional; conditions: isolate CAN-ICU 62584, 24 h
Description: Antibacterial activity against Stenotrophomonas maltophilia isolate CAN-ICU 62584 after 24 hrs by macrobroth dilution method

Previously resolved entries follow.
Cc1cc(OCc2cn(C[C@H]3O[C@@H](O[C@@H]4[C@@H](O)[C@H](N)C[C@H](N)[C@H]4O[C@H]4O[C@H](CN)[C@@H](O)[C@H](O)[C@H]4N)[C@H](O)[C@@H]3O[C@H]3O[C@@H](CN)[C@@H](O)[C@H](O)[C@H]3N)nn2)cc(C)c1Cl ... > 512 µg/mL
NC[C@@H]1O[C@H](O[C@H]2[C@@H](O)[C@H](O[C@@H]3[C@@H](O)[C@H](N)C[C@H](N)[C@H]3O[C@H]3O[C@H](CN)[C@@H](O)[C@H](O)[C@H]3N)O[C@@H]2CO)[C@H](N)[C@@H](O)[C@@H]1O.O.O=S(=O)(O)O [NEOMYCIN TRISULFATE HYDRATE] ... > 512 µg/mL

Prompt: Given the compound Cc1cc(OCCCCc2cn(C[C@H]3O[C@@H](O[C@@H]4[C@@H](O)[C@H](N)C[C@H](N)[C@H]4O[C@H]4O[C@H](CN)[C@@H](O)[C@H](O)[C@H]4N)[C@H](O)[C@@H]3O[C@H]3O[C@@H](CN)[C@@H](O)[C@H](O)[C@H]3N)nn2)cc(C)c1Cl , what is its reported MIC90?
Completion: > 512 µg/mL

Prompt: Given the compound CC(C)(C)CC(C)(C)c1ccc(OCc2cn(C[C@H]3O[C@@H](O[C@@H]4[C@@H](O)[C@H](N)C[C@H](N)[C@H]4O[C@H]4O[C@H](CN)[C@@H](O)[C@H](O)[C@H]4N)[C@H](O)[C@@H]3O[C@H]3O[C@@H](CN)[C@@H](O)[C@H](O)[C@H]3N)nn2)c(Cc2ccc(Cl)cc2Cl)c1 , what is its reported MIC90?
Completion: 512 µg/mL

Prompt: Given the compound CC(C)(C)CC(C)(C)c1ccc(OCCCCc2cn(C[C@H]3O[C@@H](O[C@@H]4[C@@H](O)[C@H](N)C[C@H](N)[C@H]4O[C@H]4O[C@H](CN)[C@@H](O)[C@H](O)[C@H]4N)[C@H](O)[C@@H]3O[C@H]3O[C@@H](CN)[C@@H](O)[C@H](O)[C@H]3N)nn2)c(Cc2ccc(Cl)cc2Cl)c1 , what is its reported MIC90?
Completion: 512 µg/mL

Prompt: Given the compound Oc1cc(Cl)ccc1Oc1ccc(Cl)cc1Cl , what is its reported MIC90?
Completion: 512 µg/mL

Prompt: Given the compound Cc1cc(O)cc(C)c1Cl , what is its reported MIC90?
Completion: 128 µg/mL
